Reference source for all entries: ChEMBL document CHEMBL3433997

- Test System: Solute carrier family 2, facilitated glucose transporter member 1 (Homo sapiens) (UniProt P11166)
- Sequence (P11166 whole entry): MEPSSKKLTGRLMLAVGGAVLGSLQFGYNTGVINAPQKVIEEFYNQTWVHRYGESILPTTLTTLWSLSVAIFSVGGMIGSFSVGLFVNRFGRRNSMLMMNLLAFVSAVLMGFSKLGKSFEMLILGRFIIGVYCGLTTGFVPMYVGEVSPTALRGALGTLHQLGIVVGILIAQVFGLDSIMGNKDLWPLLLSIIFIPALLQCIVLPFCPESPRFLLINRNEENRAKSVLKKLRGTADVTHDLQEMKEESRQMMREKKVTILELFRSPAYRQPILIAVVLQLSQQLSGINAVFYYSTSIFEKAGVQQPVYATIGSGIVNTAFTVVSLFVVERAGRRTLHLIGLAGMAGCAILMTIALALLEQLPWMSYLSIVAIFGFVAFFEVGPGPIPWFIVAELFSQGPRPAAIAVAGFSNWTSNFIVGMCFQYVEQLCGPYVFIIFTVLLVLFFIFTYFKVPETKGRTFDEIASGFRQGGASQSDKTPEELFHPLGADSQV
- Assay Text: ST_JUDE_LEISH: Cytotoxicity at 2uM final concentration against transgenic Leishmania Mexicana promastigotes LmGLUT1 that are glucose transport deficient and complemented with the human glucose transporter GLUT1. Activity is measured by DNA content using SYBR green in vitro
- Format: functional
Observed Property: inhibition (%)
The response must be a number in % with no trailing unit.

Below, 3 compounds whose answers are already recorded.
{"columns": ["Compound", "inhibition / %"],
 "data": [
  ["Cc1[nH]c(C)c(-c2ccc(-c3cc(C(F)(F)F)cc(C(F)(F)F)c3)nc2)c(=O)c1Br", 4.9],
  ["COc1ccc(-c2cc(Nc3nc(-c4cccc(Cl)c4)nc4ccccc34)ccn2)cc1", 1.11],
  ["COc1ccccc1-n1c(SCC(=O)c2ccc3c(c2)CC(=O)N3C)nnc1-c1cccs1", 24]
]}

Prompt: Look up and state reported inhibition for `O=C(N[C@H]1CCN(Cc2ccc(OC3CCN(Cc4ccccc4)CC3)c(Cl)c2)C1)c1ccc(Cl)c(Cl)c1`
Completion: 0.44

Prompt: Look up and state reported inhibition for `COc1ccc2nc(N(CCCn3ccnc3)C(=O)C=Cc3cccs3)sc2c1`
Completion: 3.73

###

- Test System: Solute carrier family 2, facilitated glucose transporter member 1 (Homo sapiens)
- Assay Text: ST_JUDE_LEISH: Cytotoxicity at 2uM final concentration against transgenic Leishmania Mexicana promastigotes LmGLUT1 that are glucose transport deficient and complemented with the human glucose transporter GLUT1. Activity is measured by DNA content using SYBR green in vitro
- Assay type: functional
Observed Property: inhibition (%)
The response must be a number in % with no trailing unit.

{"columns": ["Compound String", "Unit Text", "inhibition"],
 "data": [
  ["CC(C)COc1ccc(Cl)cc1Cc1ccc(-c2nc3cnc4ccccc4c3[nH]2)o1", "%", 3.89],
  ["CC1(C)N=C(N)N=C(Nc2ccc(Cl)cc2)N1", "%", 14.5],
  ["O=C(c1ccc([N+](=O)[O-])o1)N1CCC(Cc2ccc(C(F)(F)F)cc2)CC1", "%", 9.05],
  ["O=C(Nc1ccc2[nH]c(-c3ccc4nc(NC(=O)C5CCCCC5)sc4c3)nc2c1)C1CCCCC1", "%", 0.5]
]}

Now look at this entry.
Prompt: State the measured inhibition (Solute carrier family 2, facilitated glucose transporter member 1 (Homo sapiens)) of `Cc1noc(-c2ccc(N3CCC(C(=O)N4CCN(C(C)C)CC4)CC3)cc2)n1`
Completion: 1.72

###

- Test System: Solute carrier family 2, facilitated glucose transporter member 1 (Homo sapiens) (UniProt P11166)
- Assay Text: ST_JUDE_LEISH: Cytotoxicity at 2uM final concentration against transgenic Leishmania Mexicana promastigotes LmGLUT1 that are glucose transport deficient and complemented with the human glucose transporter GLUT1. Activity is measured by DNA content using SYBR green in vitro
- Type: functional
Observed Property: inhibition (%)
The response must be a number in % with no trailing unit.

Below, 4 compounds whose answers are already recorded.
{"columns": ["Compound", "Unit Text", "inhibition"],
 "data": [
  ["CN(Cc1cccc(F)c1)C1CCCN(c2cc(NC(=O)c3ccccc3)ccn2)C1 (stereo not given)", "%", 4.12],
  ["COc1ccc2ncc(Cl)c(CCN3C[C@H](CNCc4ccc5c(n4)NC(=O)CS5)[C@H](O)C3)c2n1", "%", 5.41],
  ["COC(=O)c1ccc(N2CCN(CCCCNC(=O)c3ccc(NC(=O)c4ccc(Cl)cc4)cc3)CC2)c(OC)c1", "%", 0.45],
  ["COc1ccc(CCN2CCC(CN(C)Cc3cnn(-c4ccccc4)c3)CC2)cc1", "%", 4.24]
]}

Now look at this entry.
Prompt: Look up and state reported inhibition for `CCN1CCN(Cc2ccc3nc(-c4cc(C)n(Cc5cc(Cl)ccc5OCc5ccccc5)n4)[nH]c3c2)CC1`
Completion: 3.5
